Answer each item with its documented Ratio.
Test Description: Ratio of drug uptake in pons to cerebellum in anesthetized cynomolgus monkey after 0.5 mins postinjection
Assay type: ADME, organism-based, Macaca fascicularis
Assay Setup: in vivo
Lab note: jot down the number only; don't add units.

Given the molecule O=C(OCC[18F])C1C2CCC(CC1c1cccc(/C=C\I)c1)N2 (centres undefined) , what is its reported Ratio? 1.7

Tell me the measured Ratio of O=C(OCC[18F])C1C2CCC(CC1c1cccc(/C=C\Br)c1)N2 (centres undefined) , please. 3.8

// query Ratio value for entry O=C(OCCC[18F])C1C2CCC(CC1c1cccc(/C=C\I)c1)N2 (centres undefined) 1.7

Request the reported Ratio associated with O=C(OCCC[18F])C1C2CCC(CC1c1cccc(/C=C\Br)c1)N2 (centres undefined) 1.6

---

Test Description: Ratio of drug uptake in occipital lobe to cerebellum in anesthetized cynomolgus monkey after 135 mins postinjection
Type: ADME, organism-based, Macaca fascicularis
Assay Setup: in vivo, 2.25 h
Assign Ratio to each entry below.
No unit in the answer, please; the number alone is enough.

For the compound O=C(OCCC[18F])C1C2CCC(CC1c1cccc(/C=C\I)c1)N2 (centres undefined) , what Ratio is on record? 1.1

Record request: Ratio value, item O=C(OCCC[18F])C1C2CCC(CC1c1cccc(/C=C\Br)c1)N2 (centres undefined) 1.2

Given O=C(OCC[18F])C1C2CCC(CC1c1cccc(/C=C\Br)c1)N2 (centres undefined) , state its recorded Ratio. 1.1

Fill in the blank: the reported Ratio of O=C(OCC[18F])C1C2CCC(CC1c1ccc(/C=C\I)cc1)N2 (centres undefined) is ____. 1.3

---

Tested on: Medulla
Test Description: Drug uptake in anesthetized cynomolgus monkey brain medulla after 27.5 mins postinjection
Type: ADME, organism-based, Macaca fascicularis
Assay Setup: in vivo
Measured Endpoint: Drug uptake
I'd appreciate a reply containing only the number, no unit.

Entry under review: O=C(OCCC[18F])C1C2CCC(CC1c1cccc(/C=C\I)c1)N2 (stereo not given) . Reported Drug uptake? 5.08

Value lookup for Drug uptake; key = O=C(OCC[18F])C1C2CCC(CC1c1cccc(/C=C\I)c1)N2 (stereo not given) 3.97

Quick one: Drug uptake for O=C(OCC[18F])C1C2CCC(CC1c1cccc(/C=C\Br)c1)N2 (stereo not given) ? 4.57

Any idea what its Drug uptake is? The molecule is O=C(OCCC[18F])C1C2CCC(CC1c1cccc(/C=C\Br)c1)N2 (stereo not given) 6.12

Look at this molecule and give its reported Drug uptake. O=C(OCC[18F])C1C2CCC(CC1c1ccc(/C=C\I)cc1)N2 (stereo not given) 3.35

---

System: Midbrain
Test Description: Drug uptake in anesthetized cynomolgus monkey brain midbrain after 1.5 mins postinjection
Type: ADME, organism-based, Macaca fascicularis
Set-up: unit not given here
Assay Setup: in vivo, 0.025 h
Classify as follows. Reported Drug uptake greater than or equal to 0.1: Criterion met. Reported Drug uptake below: Criterion not met.

# check: Drug uptake of O=C(OCC[18F])C1C2CCC(CC1c1cccc(/C=C\Br)c1)N2 (stereo not given) is greater than or equal to 0.1 Criterion not met

Answer whether Drug uptake of O=C(OCCC[18F])C1C2CCC(CC1c1cccc(/C=C\I)c1)N2 (stereo not given) is greater than or equal to 0.1. Criterion met

Assess whether reported Drug uptake for O=C(OCC[18F])C1C2CCC(CC1c1cccc(/C=C\I)c1)N2 (stereo not given) sits at 0.1 or higher. Criterion met

Would you say O=C(OCCC[18F])C1C2CCC(CC1c1cccc(/C=C\Br)c1)N2 (stereo not given) shows Drug uptake at minimum 0.1? Criterion met

---

Test system: Pons
Test Description: Drug uptake in anesthetized cynomolgus monkey brain pons after 12.5 mins postinjection
Assay type: ADME, organism-based, Macaca fascicularis
Assay Setup: in vivo
Labelling: Drug uptake reported below 3 becomes Condition met; at or above becomes Condition not met.

Report whether reported Drug uptake is lower than 3 (strictly) for O=C(OCCC[18F])C1C2CCC(CC1c1cccc(/C=C\Br)c1)N2 (stereo not given) Condition not met

# strict comparison: is reported Drug uptake < 3? input = O=C(OCC[18F])C1C2CCC(CC1c1ccc(/C=C\I)cc1)N2 (stereo not given) Condition met

Say whether its Drug uptake is strictly beneath 3. Entry: O=C(OCC[18F])C1C2CCC(CC1c1cccc(/C=C\Br)c1)N2 (stereo not given) Condition not met

Please determine if O=C(OCCC[18F])C1C2CCC(CC1c1cccc(/C=C\I)c1)N2 (stereo not given) is below 3 in terms of Drug uptake. Condition not met

Please indicate whether the reported Drug uptake of O=C(OCC[18F])C1C2CCC(CC1c1cccc(/C=C\I)c1)N2 (stereo not given) is strictly below 3. Condition met

---

Test Description: Drug uptake in anesthetized cynomolgus monkey brain occipital lobe after 155 mins postinjection
Type: ADME, organism-based, Macaca fascicularis
Assay Setup: in vivo
Measured Endpoint: Drug uptake
Quick one: just the number, no unit, thanks!

Which Drug uptake value belongs to O=C(OCCC[18F])C1C2CCC(CC1c1cccc(/C=C\Br)c1)N2 (stereo not given) ? 3.27

I have this compound here, O=C(OCC[18F])C1C2CCC(CC1c1cccc(/C=C\Br)c1)N2 (stereo not given) , and I need its recorded Drug uptake. 2.67

# query: Drug uptake of entry O=C(OCC[18F])C1C2CCC(CC1c1ccc(/C=C\I)cc1)N2 (stereo not given) 2.02

Would you kindly share the measured Drug uptake for O=C(OCCC[18F])C1C2CCC(CC1c1cccc(/C=C\I)c1)N2 (stereo not given) ? 2.63

Need Drug uptake, item O=C(OCC[18F])C1C2CCC(CC1c1cccc(/C=C\I)c1)N2 (stereo not given) 1.63

---

System: Thalamus
Test Description: Drug uptake in anesthetized cynomolgus monkey brain thalamus after 65 mins postinjection
Type: ADME, organism-based, Macaca fascicularis
Design: unit not given here
Assay Setup: in vivo
Use Fulfilled when the recorded Drug uptake is no lower than 5; use Not fulfilled when it is lower.

Decide: Drug uptake of O=C(OCCC[18F])C1C2CCC(CC1c1cccc(/C=C\Br)c1)N2 (stereo not given) >= 5? Fulfilled

Evaluate O=C(OCCC[18F])C1C2CCC(CC1c1cccc(/C=C\I)c1)N2 (stereo not given) : Drug uptake at minimum 5? Not fulfilled

Tell me whether Drug uptake is at least 5 here: O=C(OCC[18F])C1C2CCC(CC1c1cccc(/C=C\I)c1)N2 (stereo not given) Not fulfilled

Assess whether reported Drug uptake for O=C(OCC[18F])C1C2CCC(CC1c1cccc(/C=C\Br)c1)N2 (stereo not given) sits at 5 or higher. Not fulfilled

// inclusive: Drug uptake at least 5? input: O=C(OCC[18F])C1C2CCC(CC1c1ccc(/C=C\I)cc1)N2 (stereo not given) Not fulfilled

---

Test Description: Protein binding in anesthetized cynomolgus monkey plasma after 2 mins postinjection
Type: ADME, organism-based, Macaca fascicularis
Assay Setup: read-out: PPB (converted)
Measured Endpoint: fraction unbound at 2 min
# respond with the number and nothing more

Give the measured fraction unbound at 2 min of O=C(OCC[18F])C1C2CCC(CC1c1cccc(/C=C\I)c1)N2 (stereo unspecified) . 0.944

---

System: Caudate
Test Description: Drug uptake in anesthetized cynomolgus monkey brain caudate after 45 mins postinjection
Assay type: ADME, organism-based, Macaca fascicularis, Caudate nucleus
Assay Setup: in vivo, 0.75 h
Label criterion met for high-side Drug uptake (at or above 4) and criterion not met for low-side Drug uptake (below it).

Check the entry O=C(OCC[18F])C1C2CCC(CC1c1ccc(/C=C\I)cc1)N2 (stereo not given) : does Drug uptake equal or exceed 4? criterion not met

Is reported Drug uptake greater than or equal to 4 here: O=C(OCC[18F])C1C2CCC(CC1c1cccc(/C=C\I)c1)N2 (stereo not given) criterion not met

Dear colleague, could you confirm whether O=C(OCC[18F])C1C2CCC(CC1c1cccc(/C=C\Br)c1)N2 (stereo not given) has Drug uptake at or above 4? criterion not met

For this compound, is measured Drug uptake 4 or higher? O=C(OCCC[18F])C1C2CCC(CC1c1cccc(/C=C\Br)c1)N2 (stereo not given) criterion met

---

System: Midbrain
Test Description: Drug uptake in anesthetized cynomolgus monkey brain midbrain after 15.5 mins postinjection
Assay type: ADME, organism-based, Macaca fascicularis
Parameters: unit not given here
Assay Setup: in vivo
Measured Endpoint: Drug uptake
# answer = number (no unit)

Report Drug uptake for O=C(OCC[18F])C1C2CCC(CC1c1cccc(/C=C\Br)c1)N2 (stereo not given) please. 4.06

Which Drug uptake is listed for O=C(OCCC[18F])C1C2CCC(CC1c1cccc(/C=C\Br)c1)N2 (stereo not given) ? 5.7

# query: Drug uptake of entry O=C(OCC[18F])C1C2CCC(CC1c1ccc(/C=C\I)cc1)N2 (stereo not given) 2.58

Tell me the measured Drug uptake of O=C(OCCC[18F])C1C2CCC(CC1c1cccc(/C=C\I)c1)N2 (stereo not given) , please. 4.45

Please report the recorded Drug uptake for O=C(OCC[18F])C1C2CCC(CC1c1cccc(/C=C\I)c1)N2 (stereo not given) . 4.07
